Target: T1, human LAG3 (Human LAG3/FGL1 TR-FRET Binding Assay, BPS Bioscience) (human, UniProt P18627 23-450, limits assumed)
T1 construct: Kit reagent (BPS Bioscience); construct not described
T1 sequence (looked up): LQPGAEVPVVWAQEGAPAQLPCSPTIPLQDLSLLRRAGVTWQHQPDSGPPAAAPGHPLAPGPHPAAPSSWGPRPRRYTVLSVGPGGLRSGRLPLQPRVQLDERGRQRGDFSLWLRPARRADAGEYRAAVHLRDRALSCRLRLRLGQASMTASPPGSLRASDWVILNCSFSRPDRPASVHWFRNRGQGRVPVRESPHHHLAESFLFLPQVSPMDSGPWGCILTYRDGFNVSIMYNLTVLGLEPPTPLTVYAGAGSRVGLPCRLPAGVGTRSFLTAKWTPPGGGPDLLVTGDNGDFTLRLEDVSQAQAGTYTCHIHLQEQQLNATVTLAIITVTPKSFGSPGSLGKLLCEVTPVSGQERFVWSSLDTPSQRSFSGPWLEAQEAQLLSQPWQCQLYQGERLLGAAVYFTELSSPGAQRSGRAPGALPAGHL
Test: TR-FRET competition, inhibition of LAG3:FGL1 binding
pIC50: −log10 of the molar value.
pIC50 values by entry
property: pIC50

> print(dat)
                                     binder  meas.value
1  VFRMDWDEKEVRLYADDILL (20-mer peptide) [peptide 146]        5.14
2  ITMWGYDTDEDDNLVIYLTD (20-mer peptide) [peptide 6]        5.59
3  EHNREQVLEVMYSFQVNDYF (20-mer peptide) [peptide 154]        5.14
4  TVDADGDLYFDMEEGVLVFM (20-mer peptide) [peptide 41]        5.04
5  HIQNWSYWLNQDMMNQQVWKS (peptide positive control in the LAG3/FGL1 assay) [Peptide LG56]        4.85
6  RTDRYTLSYIWTSDEWMLFD (20-mer peptide) [peptide 115]        5.04
7  AEFDHFDVGQTLDIASWDSY (20-mer peptide) [peptide 69]        5.48
